measure: logP

Cc1cccc2c1Sc1ccccc1C2NC(=O)N(CCCl)N=O (centres undefined) :: 5.03
Cc1ccc2c(c1)C(NC(=O)N(CCCl)N=O)c1ccccc1S2 (centres undefined) :: 5.01
O=NN(CCCl)C(=O)NC1c2ccccc2Oc2ccccc21 :: 4.17
Cc1cccc2c1Oc1ccccc1C2NC(=O)N(CCCl)N=O (centres undefined) :: 4.77
